The following binders are listed with their measured binding signal values.
Target of assay: T1, GABPα-GST (ETS domain);CREB1 B-ZIP domain (mouse?;mouse, UniProt Q00422;Q01147 320-400;269-327, |)
T1 sequence 1: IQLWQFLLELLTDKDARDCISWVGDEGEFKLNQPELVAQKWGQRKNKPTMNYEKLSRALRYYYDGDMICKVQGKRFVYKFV
T1 sequence 2: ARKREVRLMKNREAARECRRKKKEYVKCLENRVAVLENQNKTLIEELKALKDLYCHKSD
Assay explanation: PBM; 8 ng:8 ng plasmid; PBM as in Badis et al. 2009 (buffer, salt, pH, temperature not stated); IVT proteins from 2.5-100 ng plasmid; Alexa Fluor 647 anti-GST detection
Test conditions: protein: ivt;ivt; tags: GST;none; copies: 1;2; blunt
Only the number, expressed in fold increase by CREB1, is required.

# Binder, binding signal, fold increase by CREB1
rows = [
    ("CC SNP CCGGAACT (dsDNA) DNA 1: GTCCTCAAGACCGGAACTGACGTCACGACTCAGGTGGGACACACTTTAACACATGGAGAG DNA 2: CTCTCCATGTGTTAAAGTGTGTCCCACCTGAGTCGTGACGTCAGTTCCGGTCTTGAGGAC", 20),
]

// next entry
Which binding signal reading was recorded for the binder CC SNP CCGGAAA(T) (dsDNA) DNA 1: GTCCTCAAGACCGGAAATGACGTCACGACTCAGGTGGGACACACTTTAACACATGGAGAG DNA 2: CTCTCCATGTGTTAAAGTGTGTCCCACCTGAGTCGTGACGTCATTTCCGGTCTTGAGGAC ? 2

Data origin, for the record: paper PMC4555227
